Biological target: human EGF receptor (human, UniProt P00533)
Test: competition of 125I-EGF binding to NRHER5 membranes, 50% inhibition
property measured: IC50

Some entries whose results are on file:
bacterially produced AR-SMKT (ligand) MVVKPPQNKTESENTSDKPKRKKKGGKNGKNRRNRKKKNPCNAEFQNFCIHGECKYIEHLEAVTCKCQQEYFGERCGEKSMKT :: ~150 nM
recombinant human AR 18 kD purified from CHO/ARGE 2a cells (ligand, N-linked glycosylation at Asn-113) NKTESEKTSDKPKRKKKGGKNGKNRRNRKKKNLCDTEFQNFCIHGKCTFLEQLETVSCQCYPEYFGERCGEKSMKTQSMVD :: ~100 nM

Lab note: next binder to report on.
Input: Report IC50 for bacterially produced AAAT (ligand) MVVKPPQNKTESENTSDKPKRKKKGGKNGKNRRNRKKKNPCNAEFQNFCIHGECKYIEHLEAVTCKCQQEYFGERCGEKDLLA
Output: ~1.5 nM
